Several reports have described pIC50 for Receptor tyrosine-protein kinase erbB-2 (Homo sapiens, UniProt P04626); a selection of those results is presented here.
pIC50: −log10 of the molar value.

// known answers, use as guide
COc1ccc(CNc2nc3ccccc3n2-c2ncnc(Nc3cccc(Cc4nnn[nH]4)c3)n2)cc1 ... 5.16 to 5.32
COC1CCN(Cc2ccc(NC(=O)c3sc4ncc(C#N)c5c4c3NC(=O)N5c3ccc(Oc4ccccc4)cc3)cc2)CC1 ... < 5.00
C=CC(=O)N1CCOc2c1ccc1ncnc(Nc3ccc(SCc4ccccc4)cc3)c21 ... ≥ 7.30
CN(C)C/C=C/C(=O)N1CCOc2c1ccc1ncnc(Nc3ccc(OCc4ccccc4)cc3)c21 ... ≥ 7.30
C[C@@H](Nc1ncnc2[nH]c(-c3ccc(CN4CCCC4)cc3)cc12)c1ccccc1 ... 8.30
CC(C)c1nc(-c2cccc(NS(=O)(=O)c3ccccc3)c2)c(-c2ccnc(Nc3ccc(N4CCOCC4)cn3)n2)s1 ... < 6.00

Let's switch to this compound now.
Task: For the compound C#CCN(Cc1cnc2nc(N)nc(N)c2n1)c1ccc(C(=O)NC(CCC(=O)O)C(=O)O)cc1C (stereo not shown) , give its reported pIC50.
Result: 6.05
